test system: MDA-MB-231 breast; test: NCI-60 one-dose screen, 48 h; settings: 10 µM unless noted
About 83,000 compounds went through this panel and 20% of them were active in at least one assay; those are over-represented in the sample as a whole. Calls of active or inactive are those of the source. The calls were made as follows: active = growth percent below 10; inactive = the rest.
Can you answer with just one of these options? active, inactive

(Q) What classification did CCOC(=O)C(NC(=O)C(Cc1ccc(N(CCCl)CCCl)cc1)NC(C)=O)C(C)C (stereo not drawn) end up with in this test?
(A) inactive

(Q) Tell me the assay call for CN1CCN(c2ccc([N+](=O)[O-])c3no[n+]([O-])c23)CC1 please.
(A) active

(Q) Recorded call for CC[C@@]1(O)C[C@H](OC2CC(N(C)C)C(O)C(C)O2)c2c(O)c3c(c(O)c2[C@H]1OC1CC(N(C)C)C(O)C(C)O1)C(=O)c1cccc(O)c1C3=O (stereo partly drawn) ?
(A) active

* * *

tested on: MALME-3M melanoma; test: NCI-60 one-dose screen, 48 h (100 = growth as untreated, 0 = no growth, -100 = all killed); conditions: 10 µM unless noted
Compounds without any hit were thinned out: in the full panel of roughly 83,000, 20% have a hit. Activity calls are given as the source filed them. The calls were made as follows: active = growth percent below 10; inactive = the rest.
Measured Quantity: growth

Record for CC[C@@]1(O)C[C@H](OC2CC(N(C)C)C(OC3CC(O)C(OC4CCC(=O)C(C)O4)C(C)O3)C(C)O2)c2c(cc3c(c2O)C(=O)c2c(O)ccc(O)c2C3=O)[C@H]1C(=O)OC (stereo not given in full) under target or system MALME-3M melanoma: growth reported as -12.2% (active)

Bench note, MALME-3M melanoma: entry CC1=C(CO)C2=C(C)C3(CC3)[C@@](C)(O)C(=O)C2=C1 , its growth = -87.5% (active)

Kindly note: MALME-3M melanoma, CCC1(O)CC(OC2CC(N(C)C)C(OC3CC4OC5CC(=O)C(C)OC5OC4C(C)O3)C(C)O2)c2c(cc3c(c2O)C(=O)c2c(O)ccc(O)c2C3=O)C1C(=O)OC (stereo not given) , growth value reported: -95.3% (active)

Test item CCOC(=O)C(NC(=O)C(Cc1ccc(N(CCCl)CCCl)cc1)NC(C)=O)C(C)C (stereo not given) ; MALME-3M melanoma; reported growth was 91.7% (inactive)

Reported MALME-3M melanoma growth for item CC[n+]1c(-c2ccccc2)c2cc(N)ccc2c2ccc(N)cc21 was -25% (active)

Known value: MALME-3M melanoma growth of the compound COC1=C(C)C(=O)C2=C(C1=O)C(CO)N1C(C#N)C3CC4C(C1C2N1CCOC41)N3C (stereo not given) equals -97.4% (active)

Bench note, MALME-3M melanoma: entry C[C@]12CC[C@H](O)CC1=CC[C@@H]1[C@@H]2CC[C@]2(C)C(=O)CC[C@@H]12 , its growth = 80.9% (inactive)

* * *

test system: NCI-H23 lung; test: NCI-60 one-dose screen, 48 h (100 = growth as untreated, 0 = no growth, -100 = all killed); settings: 10 µM unless noted
Compounds without any hit were thinned out: in the full panel of roughly 83,000, 20% have a hit.
Measured Quantity: growth (%)
Give the value in % but do not write % after it.

A selection of reference data follows.
# Compound, Measured Quantity, Reported
rows = [
    ("Oc1cc[c]([Hg][Cl])cc1", "growth", 87.8),
    ("CC[C@@]1(O)C(=O)OCc2c1cc1n(c2=O)Cc2cc3ccccc3nc2-1", "growth", -26.7),
    ("CC[C@@]1(O)C[C@H](OC2CC(N(C)C)C(O)C(C)O2)c2c(O)c3c(c(O)c2[C@H]1OC1CC(N(C)C)C(O)C(C)O1)C(=O)c1cccc(O)c1C3=O (some centres undefined)", "growth", -37.2),
]

Then there is this compound:
Looking up CO[C@H](/C(C)=C/C=C/C(C)=C/c1coc(C)n1)[C@H](C)[C@H]1C[C@@H](O)[C@@]2(C)O[C@H]2/C=C/[C@@H](C)[C@@H]2C[C@@H](CC(=O)O2)C[C@H]2O[C@@H]2C(=O)O1 , I see its growth listed as 24.4

* * *

tested on: TK-10 renal; test: NCI-60 one-dose screen, 48 h (100 = growth as untreated, 0 = no growth, -100 = all killed); details: 10 µM
About 83,000 compounds went through this panel and 20% of them were active in at least one assay; those are over-represented in the sample as a whole.
Define the label as true (1) when growth is strictly less than 90% and as false (0) in all remaining cases.

Previously resolved entries follow.
# Compound, System Under Test, Discrete Label
data = [
    ("COC1=C(C)C(=O)C2=C(C1=O)C(CO)N1C(C#N)C3CC4C(C1C2N1CCOC41)N3C (stereo unspecified)", "TK-10 renal", "true (1)"),
    ("S=C(SSC(=S)N1CCCCC1)N1CCCCC1", "TK-10 renal", "false (0)"),
    ("CCC(=O)OC1CCn2c1nc1c2C(=O)C(C)=C(N2CC2)C1=O (stereo unspecified)", "TK-10 renal", "true (1)"),
    ("COC1CC(CC2CCC(C)C(C(C)C(=O)O)O2)OC2(OC(C)(C3CCC(C)(C4OC(C5OC(O)(CO)C(C)CC5C)CC4C)O3)CC2C)C1C (stereo unspecified)", "TK-10 renal", "true (1)"),
    ("NCCc1ccc(OCc2ccccc2)c(OCc2ccccc2)c1", "TK-10 renal", "false (0)"),
    ("Cc1ccc(C(=O)OC(C(=O)O)C(OC(=O)c2ccc(C)cc2)C(=O)O)cc1 (stereo unspecified) (tested in a mixture with another compound)", "TK-10 renal", "false (0)"),
]

(Q) Criterion: growth strictly below 90%. Is it met by CC1=C2C(=O)[C@H]3[C@@H](CC=C4C[C@@H](O)CC[C@@]43C)[C@@H]2CC[C@]12O[C@@H]1C[C@H](C)CN[C@H]1[C@H]2C ?
(A) false (0)

(Q) growth strictly < 90% for this compound? CC[n+]1c(-c2ccccc2)c2cc(N)ccc2c2ccc(N)cc21
(A) true (1)

(Q) Dear reviewer, please state whether CC[C@](O)(C(=O)O)c1cc2n(c(=O)c1CO)Cc1cc3ccccc3nc1-2 has growth strictly beneath 90%.
(A) true (1)

(Q) Could you please tell me whether growth recorded for CO[C@H](/C(C)=C/C=C/C(C)=C/c1coc(C)n1)[C@H](C)[C@H]1C[C@@H](O)[C@@]2(C)O[C@H]2/C=C/[C@@H](C)[C@@H]2C[C@@H](CC(=O)O2)C[C@H]2O[C@@H]2C(=O)O1 is less than 90%?
(A) true (1)

(Q) Is 90% strictly greater than the compound's reported growth? compound: COc1ccc(OC)c(/C=C/[N+](=O)[O-])c1
(A) true (1)

* * *

system: SR leukemia; assay: NCI-60 one-dose screen, 48 h; settings: 10 µM unless noted
This is part of a sample that, as a whole, favours compounds with a hit. Of some 83,000 tested, about 20% had one in any assay. Activity calls are given as the source filed them. Rule for the calls: active = growth percent below 10; inactive = the rest.
Classes to choose from: yes (active), no (inactive)

Below are worked cases with known answers.
# Compound, Discrete Label
measured = [
    ("CO[C@H](/C(C)=C/C=C/C(C)=C/c1coc(C)n1)[C@H](C)[C@H]1C[C@@H](O)[C@@]2(C)O[C@H]2/C=C/[C@@H](C)[C@@H]2C[C@@H](CC(=O)O2)C[C@H]2O[C@@H]2C(=O)O1", "yes"),
    ("CC[C@@]1(O)C(=O)OCc2c1cc1n(c2=O)Cc2cc3ccccc3nc2-1", "yes"),
    ("Cc1c(N)nc([C@H](CC(N)=O)NC[C@H](N)C(N)=O)nc1C(=O)N[C@H](C(=O)N[C@H](C)[C@@H](O)[C@H](C)C(=O)N[C@H](C(=O)NCCc1nc(-c2nc(C(=O)NCCC[S+](C)C)cs2)cs1)[C@@H](C)O)C(OC1OC(CO)C(O)C(O)C1OC1OC(CO)C(O)C(OC(N)=O)C1O)c1cnc[nH]1 (stereo not given in full)", "yes"),
    ("CC(=O)O[C@H]1C[C@@H]2OC3C=C(C)CCC3(C)[C@@]1(C)[C@@]21CO1 (stereo not given in full)", "yes"),
    ("CC[C@@]1(O)C[C@H](OC2CC(N(C)C)C(OC3CC(O)C(OC4CCC(=O)C(C)O4)C(C)O3)C(C)O2)c2c(cc3c(c2O)C(=O)c2c(O)ccc(O)c2C3=O)[C@H]1C(=O)OC (stereo not given in full)", "yes"),
]

(Q) How did this test come out for COC1=C(C)C(=O)C2=C(C1=O)C(CO)N1C(C#N)C3CC4C(C1C2N1CCOC41)N3C (stereo not given) ?
(A) yes

(Q) // param item: COc1ccc(OC)c(/C=C/[N+](=O)[O-])c1 ; yields the recorded call
(A) yes

(Q) Please state the recorded outcome for this compound: C[C@H]1CCC/C=C/[C@@H]2C[C@H](O)C[C@H]2[C@H](O)/C=C/C(=O)O1
(A) yes

(Q) Fill in: this test's call for COC1CC(CC2CCC(C)C(C(C)C(=O)O)O2)OC2(OC(C)(C3CCC(C)(C4OC(C5OC(O)(CO)C(C)CC5C)CC4C)O3)CC2C)C1C (stereo not given) is ___
(A) yes
